I'd appreciate it if you could supply protein stability index values for the items below.
B1: IRX6 (parent)
chain: YPCLEKPRIWSLAHTATASAVEGA

Variants of: B1
PROTOCOL: protein stability index of a GFP-peptide fusion (GPS, HEK-293T) (PSI 1-6); higher = more stable;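 also: lentivirally expressed fusions sorted by FACS into six bins by GFP to DsRed ratio, PSI derived from sequencing read proportions per bin multiplied by bin number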
APPLIED_CONDITIONS: c terminus: a fixed tail appended
Reply with just the number.

-- ask Given the variant P2D , what is its reported protein stability index?
-- reply 2.28

-- ask Given the variant P7H , what is its reported protein stability index?
-- reply 2.44

-- ask Given the variant G23A , what is its reported protein stability index?
-- reply 2.6

-- ask Given the variant L4M , what is its reported protein stability index?
-- reply 4.4

-- ask Given the variant A16S , what is its reported protein stability index?
-- reply 1.93

-- ask Given the variant L12C , what is its reported protein stability index?
-- reply 3.12

-- ask Given the variant I9L , what is its reported protein stability index?
-- reply 2.98

-- ask Given the variant C3A , what is its reported protein stability index?
-- reply 1.96

-- ask Given the variant A18N , what is its reported protein stability index?
-- reply 2.65

-- ask Given the variant A13V , what is its reported protein stability index?
-- reply 3.26

-- ask Given the variant I9K , what is its reported protein stability index?
-- reply 2.46
